Assay procedure: xn = mol fraction of the nth substance listed
Settings: 323.15 K; 100 kPa; Liquid; Vibrating tube method; x1 = 0.01
Numbers after ± are expanded uncertainties.
Property label: mass density

Study these solved cases before continuing.
# Compound, Result
data = [
    ("[F-].[K+] [potassium fluoride] + O", "1014.8 ± 0.2 kg/m3"),
    ("[I-].[Na+] [sodium iodide] + O", "1049.5 ± 0.2 kg/m3"),
]

For every record below, what is its mass density?
1. [Br-].[Li+] [lithium bromide] + O
2. [Br-].[Na+] [sodium bromide] + O
3. [Br-].[K+] [potassium bromide] + O
4. [Br-].[Rb+] [rubidium bromide] + O

Result:
["1022 ± 0.2 kg/m3", "1031.1 ± 0.2 kg/m3", "1034.2 ± 0.2 kg/m3", "1056 ± 0.2 kg/m3"]

###

Assay procedure: xn = mol fraction of the nth substance listed
Settings: 333.15 K; 100 kPa; Liquid; Vibrating tube method; x1 = 0.03
So I've got a bunch of molecules here, and I need their mass density values.
Answers are plain numbers, in kg/m3.

# Molecule, Number
records = [
    ("[Br-].[Cs+] [cesium bromide] + O", 1245.5),
    ("[Cl-].[Na+] [sodium chloride] + O", 1047.6),
    ("[F-].[Rb+] [rubidium fluoride (RbF)] + O", 1131.6),
    ("[Cl-].[Cs+] [cesium chloride] + O", 1187.7),
    ("[Br-].[K+] [potassium bromide] + O", 1118.4),
]

API: the following record is the query input.
The reported value for [I-].[Li+] [lithium iodide] + O in terms of mass density is 1140.7

###

Assay procedure: xn = mol fraction of the nth substance listed
Settings: 303.15 K; 100 kPa; Liquid; Vibrating tube method; x1 = 0.01
Would you kindly list mass density for each of these compounds?
Answers are plain numbers, in kg/m3.

Example compounds with recorded mass density:
# Compound, mass density, kg/m3
rows = [
    ("[Cs+].[I-] [cesium iodide] + O", 1105.6),
    ("[Cl-].[Li+] [lithium chloride] + O", 1009.7),
    ("[F-].[K+] [potassium fluoride] + O", 1022.8),
    ("[I-].[Li+] [lithium iodide] + O", 1049.8),
    ("[Cl-].[Na+] [sodium chloride] + O", 1018.3),
    ("[Br-].[Li+] [lithium bromide] + O", 1030.2),
]

Lab note: next compound to report on.
Reported mass density ( [Br-].[K+] [potassium bromide] + O ) = 1042.6

###

Assay procedure: xn = mol fraction of the nth substance listed
Settings: 323.15 K; 100 kPa; Liquid; Vibrating tube method; x1 = 0.05
Property label: mass density (kg/m3)
Answers are plain numbers, in kg/m3.

# Compound, Unit abbrev, Number
measured = [
    ("[Cl-].[Na+] [sodium chloride] + O", "kg/m3", 1096.4),
    ("[I-].[K+] [potassium iodide] + O", "kg/m3", 1299.3),
]

For each of the compounds below, state mass density.
1. [Br-].[Cs+] [cesium bromide] + O
2. [Br-].[Li+] [lithium bromide] + O
3. [F-].[K+] [potassium fluoride] + O
4. [Br-].[K+] [potassium bromide] + O

Result:
[1419.3, 1159.3, 1121.9, 1211.7]

###

Assay procedure: xn = mol fraction of the nth substance listed
Settings: 313.15 K; 100 kPa; Liquid; Vibrating tube method; x1 = 0.01
Can you tell me mass density for the items I'm about to list?
Numbers only, in kg/m3.

Study these solved cases before continuing.
# Compound, Unit abbrev, mass density
records = [
    ("[Cl-].[Rb+] [rubidium chloride] + O", "kg/m3", 1040.7),
    ("[Cl-].[Cs+] [cesium chloride] + O", "kg/m3", 1062.1),
]

Report mass density for each item below.
1. [Br-].[K+] [potassium bromide] + O
2. [F-].[K+] [potassium fluoride] + O
3. [F-].[Rb+] [rubidium fluoride (RbF)] + O

Result:
1. 1038.7
2. 1019.2
3. 1042

Reported mass density of [Br-].[Cs+] [cesium bromide] + O : 1082.3

###

Assay procedure: xn = mol fraction of the nth substance listed
Settings: 293.15 K; 100 kPa; Liquid; Vibrating tube method; x1 = 0.01
Record form. Attribute: mass density. Fill in for each entry.
One number for each entry, in kg/m3.

Solved cases (2 shown):
# Compound, Unit abbrev, mass density
data = [
    ("[Cl-].[Na+] [sodium chloride] + O", "kg/m3", 1021.3),
    ("[I-].[Rb+] [rubidium iodide (RbI)] + O", "kg/m3", 1088.1),
]

Provide mass density values for the following items, in order.
1. [Br-].[Li+] [lithium bromide] + O
2. [Cs+].[F-] [cesium fluoride (CsF)] + O
3. [F-].[K+] [potassium fluoride] + O

Result:
1033.5
1070.9
1025.7

###

Exercise: for every item that follows, state its recorded mass density.
Assay procedure: xn = mol fraction of the nth substance listed
Settings: 303.15 K; 100 kPa; Liquid; Vibrating tube method; x1 = 0.05
Numbers only, in kg/m3.

Check out these entries, answers already filled in.
# Compound, Unit abbrev, mass density
rows = [
    ("[Cl-].[K+] [potassium chloride] + O", "kg/m3", 1119.6),
    ("[Cl-].[Rb+] [rubidium chloride] + O", "kg/m3", 1232.8),
    ("[Br-].[Cs+] [cesium bromide] + O", "kg/m3", 1432.6),
    ("[Cl-].[Na+] [sodium chloride] + O", "kg/m3", 1106.2),
    ("[I-].[Li+] [lithium iodide] + O", "kg/m3", 1262.7),
    ("[Br-].[Rb+] [rubidium bromide] + O", "kg/m3", 1331),
]

Give mass density for each of the items listed below.
1. [Cs+].[F-] [cesium fluoride (CsF)] + O
2. [Br-].[Na+] [sodium bromide] + O

Result:
[1345.4, 1211.8]

Look at each compound and report its mass density.
1. [F-].[K+] [potassium fluoride] + O
2. [Cs+].[I-] [cesium iodide] + O
3. [I-].[Rb+] [rubidium iodide (RbI)] + O
4. [Br-].[Li+] [lithium bromide] + O
5. [Cl-].[Cs+] [cesium chloride] + O

Result:
1130.7
1512.1
1416.3
1168
1337

Below are some compounds; for each one, tell me its mass density.
1. [Br-].[K+] [potassium bromide] + O
2. [I-].[Na+] [sodium iodide] + O

Result:
1: 1222.6; 2: 1303.2

###

Assay procedure: xn = mol fraction of the nth substance listed
Settings: 323.15 K; 100 kPa; Liquid; Vibrating tube method; x1 = 0.03
Property label: mass density (kg/m3)
Answers are plain numbers, in kg/m3.

Use these answered entries as a reference point.
# Compound, Number
measured = [
    ("[Cl-].[Cs+] [cesium chloride] + O", 1193.2),
    ("[F-].[K+] [potassium fluoride] + O", 1068.4),
    ("[Br-].[Na+] [sodium bromide] + O", 1115.1),
]

I'm hoping you can list mass density for every compound here, please.
1. [Cl-].[Rb+] [rubidium chloride] + O
2. [I-].[K+] [potassium iodide] + O
3. [Cs+].[F-] [cesium fluoride (CsF)] + O

Result:
1. 1130
2. 1178.4
3. 1196.6

###

Assay procedure: xn = mol fraction of the nth substance listed
Settings: 333.15 K; 100 kPa; Liquid; Vibrating tube method; x1 = 0.03
Property label: mass density (kg/m3)
One number for each entry, in kg/m3.

# Molecule, Unit abbrev, mass density
rows = [
    ("[Cl-].[K+] [potassium chloride] + O", "kg/m3", 1057.2),
    ("[Br-].[Rb+] [rubidium bromide] + O", "kg/m3", 1182.9),
    ("[Br-].[Li+] [lithium bromide] + O", "kg/m3", 1084.6),
    ("[Cl-].[Li+] [lithium chloride] + O", "kg/m3", 1023.8),
    ("[F-].[K+] [potassium fluoride] + O", "kg/m3", 1063.5),
    ("[I-].[Na+] [sodium iodide] + O", "kg/m3", 1163.4),
    ("[Br-].[Na+] [sodium bromide] + O", "kg/m3", 1109.4),
    ("[I-].[Rb+] [rubidium iodide (RbI)] + O", "kg/m3", 1235.9),
    ("[Cl-].[Rb+] [rubidium chloride] + O", "kg/m3", 1124.7),
    ("[Cs+].[F-] [cesium fluoride (CsF)] + O", "kg/m3", 1190.9),
]

Quick request: mass density for each listed item, please.
1. [I-].[K+] [potassium iodide] + O
2. [Cs+].[I-] [cesium iodide] + O

Result:
1: 1172.3; 2: 1295.9
